target: human CD33 N160A (human, UniProt P20138 18-364); experiment: flow cytometry on HEK293-T, alanine scan
Sequence (P20138 18-364 N160A limits assumed): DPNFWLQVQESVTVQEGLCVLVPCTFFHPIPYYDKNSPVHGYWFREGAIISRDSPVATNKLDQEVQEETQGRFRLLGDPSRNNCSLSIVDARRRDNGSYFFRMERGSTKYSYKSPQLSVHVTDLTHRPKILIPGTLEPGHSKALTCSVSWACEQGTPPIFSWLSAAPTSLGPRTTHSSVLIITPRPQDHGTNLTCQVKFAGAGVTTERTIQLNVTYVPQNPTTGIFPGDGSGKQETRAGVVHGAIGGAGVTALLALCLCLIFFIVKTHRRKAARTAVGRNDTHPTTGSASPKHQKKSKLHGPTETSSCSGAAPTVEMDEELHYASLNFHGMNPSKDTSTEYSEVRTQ
Quantity Name: Mean % WT Binding

Below: 3 binders and their reported Mean % WT Binding.
**Query** Quick check: Mean % WT Binding of Refmab #2 (antibody, V domains shown, The alanine scan used IgG or Fab) VH: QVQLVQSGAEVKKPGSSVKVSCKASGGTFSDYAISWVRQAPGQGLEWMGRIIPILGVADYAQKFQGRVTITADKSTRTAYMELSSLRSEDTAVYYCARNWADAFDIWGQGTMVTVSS VL: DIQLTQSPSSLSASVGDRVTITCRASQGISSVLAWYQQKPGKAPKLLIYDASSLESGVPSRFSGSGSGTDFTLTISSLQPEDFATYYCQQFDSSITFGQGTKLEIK ?
**Result** 107 % WT binding

**Query** Consider the binder shown here: Refmab #3 (antibody, V domains shown, The alanine scan used IgG or Fab) VH: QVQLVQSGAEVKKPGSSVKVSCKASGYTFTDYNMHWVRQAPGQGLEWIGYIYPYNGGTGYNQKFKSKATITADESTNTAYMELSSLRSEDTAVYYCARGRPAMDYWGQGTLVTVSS VL: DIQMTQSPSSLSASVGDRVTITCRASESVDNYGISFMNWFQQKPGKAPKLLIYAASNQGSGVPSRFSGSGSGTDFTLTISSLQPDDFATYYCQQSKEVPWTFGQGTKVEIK What is its recorded Mean % WT Binding?
**Result** 99.3 % WT binding

**Query** Can you share its Mean % WT Binding? I mean this binder: Refmab #1 (antibody, V domains shown, The alanine scan used IgG or Fab; also called hP67.6) VH: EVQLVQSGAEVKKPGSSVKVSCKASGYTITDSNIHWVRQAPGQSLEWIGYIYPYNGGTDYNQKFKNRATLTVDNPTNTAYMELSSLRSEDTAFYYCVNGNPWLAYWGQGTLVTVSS VL: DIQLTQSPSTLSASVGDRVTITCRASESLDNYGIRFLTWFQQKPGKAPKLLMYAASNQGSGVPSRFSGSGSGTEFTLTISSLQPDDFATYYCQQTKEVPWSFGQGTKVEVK
**Result** 82.3 % WT binding

More entries:
**Query** What Mean % WT Binding value was documented for this binder, Refmab #4 (antibody, V domains shown, The alanine scan used IgG or Fab) VH: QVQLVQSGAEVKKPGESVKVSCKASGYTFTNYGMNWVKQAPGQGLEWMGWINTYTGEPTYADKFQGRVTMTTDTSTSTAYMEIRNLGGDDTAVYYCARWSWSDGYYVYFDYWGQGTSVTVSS VL: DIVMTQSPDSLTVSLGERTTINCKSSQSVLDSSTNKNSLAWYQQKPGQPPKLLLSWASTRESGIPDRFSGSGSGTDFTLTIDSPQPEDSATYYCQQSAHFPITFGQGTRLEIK ?
**Result** 102 % WT binding
